From: the supplement of paper PMC7877785

Assay: self-splicing fitness, log relative to wild type (ln ratio); higher = more splicing; Tetrahymena group I intron in knt gene, E. coli kanamycin selection, DiMSum; sequences stand for … in CUCUCU…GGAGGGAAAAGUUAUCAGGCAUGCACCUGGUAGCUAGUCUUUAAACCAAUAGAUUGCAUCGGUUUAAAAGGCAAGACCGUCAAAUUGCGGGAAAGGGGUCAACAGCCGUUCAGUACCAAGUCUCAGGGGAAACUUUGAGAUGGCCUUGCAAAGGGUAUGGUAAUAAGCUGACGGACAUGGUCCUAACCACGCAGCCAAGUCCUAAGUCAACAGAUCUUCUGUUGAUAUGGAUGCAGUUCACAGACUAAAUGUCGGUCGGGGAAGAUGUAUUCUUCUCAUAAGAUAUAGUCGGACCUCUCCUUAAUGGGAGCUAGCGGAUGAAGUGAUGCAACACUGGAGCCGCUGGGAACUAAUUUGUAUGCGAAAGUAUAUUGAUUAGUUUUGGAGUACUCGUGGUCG;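 also: selection with 25 µg/mL kanamycin versus none on LB agar overnight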
Settings: 37 °C
Reported values of self-splicing fitness (ln) for individual entries

- CAGCAGCAAUAUUACGUAGC: -2.94
- GGAGAGCAAUAUUACGAGUA: -2.48
- AUCUAGCAAUAUUACGGCAU: 0.24
- UCAGAGCAAUAUUACGAGAU: -2.09
- CACGAGCAAUAUUACGUUUC: -2.42

## Input Fill in: self-splicing fitness (ln) of "GAGCAGCAAUAUUACGCGGA" is ___
## Output -0.965

## Input GET /values?readout=self-splicing fitness (ln)&item= "GCUCAGCAAUAUUACGGCAG"
## Output -2.82

## Input Could you tell me which self-splicing fitness (ln) is on file for "CUACAGCAAUAUUACGUGUA" ?
## Output -2.93

====

Test: self-splicing fitness, log relative to wild type (ln ratio); higher = more splicing; Tetrahymena group I intron in knt gene, E. coli kanamycin selection, DiMSum; sequences stand for … in CUCUCU…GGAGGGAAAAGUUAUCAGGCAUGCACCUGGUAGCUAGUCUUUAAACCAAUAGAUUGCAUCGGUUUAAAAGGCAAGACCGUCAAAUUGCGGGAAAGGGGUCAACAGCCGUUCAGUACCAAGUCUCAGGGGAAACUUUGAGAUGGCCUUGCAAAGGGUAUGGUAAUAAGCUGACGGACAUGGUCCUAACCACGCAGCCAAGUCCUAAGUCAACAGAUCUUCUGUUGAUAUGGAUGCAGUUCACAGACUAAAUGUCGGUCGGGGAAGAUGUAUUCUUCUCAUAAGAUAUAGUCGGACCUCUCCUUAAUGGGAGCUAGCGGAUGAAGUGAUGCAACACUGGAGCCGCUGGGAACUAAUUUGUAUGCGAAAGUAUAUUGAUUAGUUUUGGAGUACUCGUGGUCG
Conditions: 37 °C
Measurement name: self-splicing fitness (ln)
Give your answer as a number; write no unit.

Here is how some sequences turned out for self-splicing fitness (ln).
- GGCAAGCAAUAUUACGCAUA: 0.0644
- ACGGAGCAAUAUUACGUUAC: -2.56
- GUGUAGCAAUAUUACGGAAG: -0.206
- AUAAAGCAAUAUUACGAACC: -0.77
- AAACAGCAAUAUUACGCCGU: -1.96
- GACGAGCAAUAUUACGCAUU: -2.44
- UCACAGCAAUAUUACGGGCC: -2.76
- CCCCAGCAAUAUUACGUUGG: -2.83

## Input Recorded self-splicing fitness (ln) of "GUAAAGCAAUAUUACGCCAA" , please.
## Output -0.982

## Input Quick check: self-splicing fitness (ln) of "CCCAAGCAAUAUUACGUGUU" ?
## Output -2.46

## Input If you can, please state the reported self-splicing fitness (ln) value of "UAUCAGCAAUAUUACGCCUG" .
## Output -0.425

## Input Requested read-out: self-splicing fitness (ln). Entry: "UCACAGCAAUAUUACGGGCU"
## Output -3.47

## Input Sample "CUAGAGCAAUAUUACGUCAA" — what was its self-splicing fitness (ln)?
## Output -2.23

## Input // returns reported self-splicing fitness (ln) for input "CAAGAGCAAUAUUACGACAG"
## Output 0.045

## Input Returns the measured self-splicing fitness (ln) for the input sequence. Input: "AUAAAGCAAUAUUACGCACC"
## Output -1.02

## Input Look up self-splicing fitness (ln): "CGGAAGCAAUAUUACGAAUC"
## Output -2.46

## Input Given the entry "GGUCAGCAAUAUUACGGGUG" , report its measured self-splicing fitness (ln).
## Output -0.637

## Input Could you share which self-splicing fitness (ln) value was measured for "ACAGAGCAAUAUUACGGCGA" ?
## Output -1.17

## Input I have this sequence here, "ACUCAGCAAUAUUACGCGCC" , and I need its recorded self-splicing fitness (ln).
## Output -0.503
